# tested system: ABCG2 (R482) (Homo sapiens)
# Sequence (Q9UNQ0 whole entry): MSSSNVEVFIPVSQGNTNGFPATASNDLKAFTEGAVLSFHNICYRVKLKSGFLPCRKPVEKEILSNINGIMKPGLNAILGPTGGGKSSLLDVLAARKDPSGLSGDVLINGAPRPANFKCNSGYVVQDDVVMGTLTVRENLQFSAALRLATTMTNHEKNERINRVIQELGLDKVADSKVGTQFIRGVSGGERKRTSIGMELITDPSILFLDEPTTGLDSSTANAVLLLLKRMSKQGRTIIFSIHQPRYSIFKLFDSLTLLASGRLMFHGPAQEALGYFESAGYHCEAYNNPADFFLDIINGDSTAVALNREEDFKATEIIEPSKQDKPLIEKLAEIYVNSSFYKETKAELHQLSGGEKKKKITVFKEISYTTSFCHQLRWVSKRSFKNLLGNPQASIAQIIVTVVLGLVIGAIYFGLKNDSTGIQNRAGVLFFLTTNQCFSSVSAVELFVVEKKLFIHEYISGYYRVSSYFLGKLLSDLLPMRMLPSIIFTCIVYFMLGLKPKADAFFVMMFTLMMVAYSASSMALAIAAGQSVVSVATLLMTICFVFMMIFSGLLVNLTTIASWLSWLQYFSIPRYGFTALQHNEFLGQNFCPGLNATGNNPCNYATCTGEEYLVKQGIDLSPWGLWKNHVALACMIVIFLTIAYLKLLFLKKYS
# measurement protocol: TP_TRANSPORTER: uptake (vesicle) in membrane vesicle from ABCG2-R482-expressing HEK293 cells
# Type: functional, cell membranes
# settings: membrane vesicles from ABCG2-R482-expressing HEK293 cells
reported property: Km (µM)
Dear colleague, please return just the value in µM, with no unit written.

In: Could you tell me which Km is on file for CN(Cc1cnc2nc(N)nc(N)c2n1)c1ccc(C(=O)N[C@@H](CCC(=O)O)C(=O)O)cc1 [METHOTREXATE] ?
Out: 1300
